Value source: ChEMBL document CHEMBL1961873

Overview of recorded inhibition for various molecules
assayed system: Serine/threonine-protein kinase Nek7 (Homo sapiens) (UniProt Q8TDX7)
Sequence (Q8TDX7 whole entry, looked up): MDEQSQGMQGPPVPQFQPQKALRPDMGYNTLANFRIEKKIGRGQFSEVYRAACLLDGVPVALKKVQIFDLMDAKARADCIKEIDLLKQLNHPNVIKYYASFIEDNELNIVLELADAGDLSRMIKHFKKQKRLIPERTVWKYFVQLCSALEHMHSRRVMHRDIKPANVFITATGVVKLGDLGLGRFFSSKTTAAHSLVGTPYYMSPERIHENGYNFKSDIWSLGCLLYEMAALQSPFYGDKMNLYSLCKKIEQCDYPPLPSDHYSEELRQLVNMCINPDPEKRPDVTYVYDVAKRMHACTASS
condition parameters: at 1 µM
Report as a plain number; the unit % is understood.

[[record]]
input_smiles = "CCCN(CCS(C)(=O)=O)Cc1ccc(-c2ccc3ncnc(Nc4ccc(OCc5cccc(F)c5)c(Cl)c4)c3c2)o1"
observed_value = 3.24

[[record]]
input_smiles = "COC(=O)Nc1nc2ccc(Oc3ccc(NC(=O)Nc4cccc(Cl)c4)cc3)cc2[nH]1"
observed_value = 1.97

[[record]]
input_smiles = "COc1ccc2[nH]c3c4[nH]c5ccc(OC)cc5c4c4c(c3c2c1)C(=O)NC4=O"
observed_value = 5.28

[[record]]
input_smiles = "CCn1c(-c2nonc2N)nc2c(C#CC(C)(C)O)ncc(OC3CCNCC3)c21"
observed_value = 5.15


Okay, now this molecule:
Ask: Please tell me: inhibition of `Cc1cccc2c1NC(=O)/C2=N\Nc1ccc(S(N)(=O)=O)cc1` , system Serine/threonine-protein kinase Nek7 (Homo sapiens) (UniProt Q8TDX7)?;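 note: reported values are mean inhibition of NEK7 from the GSK PKIS kinase screening panel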
Result: 2.36
